Test: melting temperature; fluorescence melt of hairpins on a sequencing array, two-state fit, raised by 9.35 °C to match UV melts
Details: sodium 0.088 M

input sequence: GAGTCCGAAAGGATGCTC ((((((....)))..)))
Tm: 40.5 °C

input sequence: GACATCCGAAAGGAGGTC (((.(((....))).)))
Tm: 57.9 °C

input sequence: AGGCAGAAATGCCT (((((....)))))
Tm: 54.7 °C

input sequence: GATCGAGGATTCGATC ((((((....))))))
Tm: 57.9 °C

input sequence: GATCCGCGGACGGATC ((((((....))))))
Tm: 56.2 °C

====

Reported folding enthalpy is given for each of the following sequences.
Experiment: folding enthalpy; higher = less favourable; fluorescence melt of hairpins on a sequencing array, two-state fit
Conditions: sodium 0.088 M
value kind: folding enthalpy (kcal/mol)

input sequence: GGCAAAGGAAACTTCGCC (((.(((....))).)))
data value: -29.7
//
input sequence: GTATAGGGAAACCTGTAC (((.(((....))).)))
data value: -30.3
//
input sequence: GATCCTCGATAGGATC ((((((....))))))
data value: -29.4
//
input sequence: GATCTTAACGAAGATC ((((((....))))))
data value: -29.9
//
input sequence: GATCATAGAAATGATC ((((((....))))))
data value: -29.4
//
input sequence: GTCCGAGGAAACTCGGGC (.(((((....))))).)
data value: -30.3

====

Assay: folding enthalpy; higher = less favourable; fluorescence melt of hairpins on a sequencing array, two-state fit
Conditions: sodium 0.088 M

input sequence: GGCACCCGAAAGGGGCC (((.(((....))))))
folding enthalpy (kJ/mol): -87.5
//
input sequence: GGGGCTGGAAACAGCTCC ((.((((....)))).))
folding enthalpy (kJ/mol): -119
//
input sequence: GATAGCGAAAGCTAATC ((((((....))).)))
folding enthalpy (kJ/mol): -53.5
//
input sequence: GTCCCCGAAAGGGGAGAC ((((((....)))..)))
folding enthalpy (kJ/mol): -34.5
//
input sequence: GCGGGATTCCGC ((((....))))
folding enthalpy (kJ/mol): -85.6
//
input sequence: GTTACCGAAAGGTCGAAC ((((((....)))..)))
folding enthalpy (kJ/mol): -41.1
//
input sequence: GCTCAGCGAAAGCTTTGC ((..(((....)))..))
folding enthalpy (kJ/mol): -60.4
//
input sequence: GGGCACGAAAGTGTGCCC ((((((....)))..)))
folding enthalpy (kJ/mol): -113
//
input sequence: GTTGGCGAAAGCCGAAAC ((((((....)))..)))
folding enthalpy (kJ/mol): -35.8
//
input sequence: GATCACTACTGTGATC ((((((....))))))
folding enthalpy (kJ/mol): -176
//
input sequence: GCCAGGAAACTGGC (((((....)))))
folding enthalpy (kJ/mol): -160
//
input sequence: GCCTTGGGAAACCGAGGC ((((.((....)).))))
folding enthalpy (kJ/mol): -167
//
input sequence: GTTGCAGGAAACTGTGAC ((..(((....)))..))
folding enthalpy (kJ/mol): -125
//
input sequence: GCCAATCCGAAAGGAGGC (((..(((....))))))
folding enthalpy (kJ/mol): -92.8
//
input sequence: GCTCCCACGAAAGTGAGC (((..(((....))))))
folding enthalpy (kJ/mol): -71.7
//
input sequence: GTCCGCGGAAACGTGGGC (.((.((....)).)).)
folding enthalpy (kJ/mol): -111
//
input sequence: GATATCCGAAAGGAGATC (((.(((....))).)))
folding enthalpy (kJ/mol): -139
//
input sequence: GGGGTTGGAAACGACTCC ((.((.(....).)).))
folding enthalpy (kJ/mol): -96.6
//
input sequence: GAACTAGGAAACCAGTTC (((((.(....).)))))
folding enthalpy (kJ/mol): -118

====

Experiment: folding enthalpy; higher = less favourable; fluorescence melt of hairpins on a sequencing array, two-state fit
Conditions: sodium 0.088 M
Reported folding enthalpy is given for each of the following sequences.

input sequence: GGGTTCGGAAACAAACCC (((((.(....).)))))
folding enthalpy: -29.8 kcal/mol
//
input sequence: CGTGCCGGAAACGGGACG (((.(((....))).)))
folding enthalpy: -37.6 kcal/mol
//
input sequence: GCGAGAGCTCGC ((((....))))
folding enthalpy: -12.8 kcal/mol
//
input sequence: GCTCTGCGAAAGCCGTGC ((.(.((....)).).))
folding enthalpy: -11.9 kcal/mol
//
input sequence: GTGTGCGAAAGCAACCAC ((((((....)))..)))
folding enthalpy: -14.3 kcal/mol
//
input sequence: GGTCTAGGAAACCAGACC (((((.(....).)))))
folding enthalpy: -35.1 kcal/mol
//
input sequence: GGGCTGCGAAAGCATCCC (((.(((....))).)))
folding enthalpy: -34.5 kcal/mol
//
input sequence: CGAACGGAAACGTATCG ((((((....))).)))
folding enthalpy: -19.2 kcal/mol
//
input sequence: GCAAACGAAAGTTATTGC ((((((....)))..)))
folding enthalpy: -18.5 kcal/mol

====

Assay: folding enthalpy; higher = less favourable; fluorescence melt of hairpins on a sequencing array, two-state fit
Conditions: sodium 0.088 M
Hi, to clarify the labels: 1.0 covers folding enthalpy from -20 kcal/mol upward, 0.0 covers anything below -20 kcal/mol.

input sequence: GATGTAGGAAACTACATC (((((((....)))))))
assigned category: 0.0
--
input sequence: GTGGATGGAAACATCTAC ((.((((....)))).))
assigned category: 0.0
--
input sequence: GCGAATGGAAACATCCGC (((.(((....))).)))
assigned category: 0.0
--
input sequence: CCACGGAAACGTGG (((((....)))))
assigned category: 0.0
--
input sequence: GACGCCACGAAAGTGGTC (((..(((....))))))
assigned category: 1.0
--
input sequence: GATCGACGGCTCGATC ((((((....))))))
assigned category: 0.0

====

Test: melting temperature; fluorescence melt of hairpins on a sequencing array, two-state fit, raised by 9.35 °C to match UV melts
Settings: sodium 0.088 M
value kind: Tm (°C)

input sequence: GTCATCCGAAAGGAAGAC (((.(((....))).)))
value unit: °C
data value: 49.3

input sequence: GGTGAACGAAAGTTAACC (((.(((....))).)))
value unit: °C
data value: 49.2

input sequence: GCGACGTCGAAAGACCGC (((..(((....))))))
value unit: °C
data value: 50.6

input sequence: GCAACCGGAAACGGCTGC (((.(((....))).)))
value unit: °C
data value: 53

input sequence: GGGTACGAAAGTATACCC ((((((....)))..)))
value unit: °C
data value: 43.9

input sequence: GGTACTGGAAACAGTGCC ((.((((....)))).))
value unit: °C
data value: 54.9

input sequence: GACAGGAAACTGTC (((((....)))))
value unit: °C
data value: 51.6

input sequence: GTATTCGGAAACAAATAC (((((.(....).)))))
value unit: °C
data value: 22.5

input sequence: GATCTCGTGTGAGATC ((((((....))))))
value unit: °C
data value: 53.1

input sequence: CGCGGACTGTCCGCG ((((((...))))))
value unit: °C
data value: 64.7

input sequence: GTACAGGCGAAAGCCTAC (((..(((....))))))
value unit: °C
data value: 34.9

====

Assay: folding enthalpy; higher = less favourable; fluorescence melt of hairpins on a sequencing array, two-state fit
Conditions: sodium 0.088 M
value kind: folding enthalpy (kcal/mol)

input sequence: GCATGGGGAAACCTGTGC (((..((....))..)))
data value: -30.3
--
input sequence: GGCTTCGAAAGAACAGCC ((((((....)))..)))
data value: -29.7
--
input sequence: GCGAGACGAAAGTCCGC (((.(((....))))))
data value: -29.3

====

Test: folding enthalpy; higher = less favourable; fluorescence melt of hairpins on a sequencing array, two-state fit
Settings: sodium 0.088 M
Reported folding enthalpy is given for each of the following sequences.

input sequence: GTCCATCGAAAGATAGAC (((.(((....))).)))
folding enthalpy: -30.5 kcal/mol
//
input sequence: GTCAACGAAAGTTATGAC ((((((....)))..)))
folding enthalpy: -20.5 kcal/mol
//
input sequence: GTCCTCGAAAGAGAGGAC ((((((....)))..)))
folding enthalpy: -30.2 kcal/mol
